System: IL-5 secretion in mouse splenocytes
ASSAY TEXT: Inhibition of IL-5 secretion in mouse splenocytes (Concanavalin A, ELISA)
Assay type: cell-based, Balb/c mice
CONDITION DETAILS: mouse splenocytes, Concanavalin A 5 μg/mL, compound 1 μM, 48 hours
For each record, write down the corresponding IL-5 pg/ml.
Provide the reading as a plain figure in pg/mL.

In: What value of IL-5 pg/ml has been recorded for this entry: `CCCCN(C)c1ncc(-c2c3c(cc4cc(OC)c(OC)cc24)COC3=O)cn1.Cl`
Out: 13.4

In: Repeat with `COc1cc2cc3c(c(-c4cnc(N5CCSCC5)nc4)c2cc1OC)C(=O)OC3`
Out: 17.2

In: Repeat with `COc1cc2cc3c(c(-c4cnc(N(C)C5CCCC5)nc4)c2cc1OC)C(=O)OC3.Cl`
Out: 11.2

In: Repeat with `CCCCN(CCCC)c1ncc(-c2c3c(cc4cc(OC)c(OC)cc24)COC3=O)cn1`
Out: 74.1

In: Repeat with COc1cc2cc3c(c(-c4cnc(N5CCCC(C)C5)nc4)c2cc1OC)C(=O)OC3 (centres unmarked)
Out: 51.9

In: Repeat with `COc1cc2cc3c(c(-c4cnc(N(CC(C)C)CC(C)C)nc4)c2cc1OC)C(=O)OC3.Cl`
Out: 71.0

In: Repeat with `COc1cc2cc3c(c(-c4cc5c(cc4OC(=O)c4ccccn4)OCO5)c2cc1OC)C(=O)OC3`
Out: 67.1

In: Repeat with CCC(C)CN(C)c1ncc(-c2c3c(cc4cc(OC)c(OC)cc24)COC3=O)cn1 (centres unmarked)
Out: 25.2
